Hey, just so you know, these numbers are from PubChem BioAssay.

Target: Beta-adrenergic receptor kinase 1 (Homo sapiens) (UniProt P25098)
Sequence (P25098 whole entry, looked up): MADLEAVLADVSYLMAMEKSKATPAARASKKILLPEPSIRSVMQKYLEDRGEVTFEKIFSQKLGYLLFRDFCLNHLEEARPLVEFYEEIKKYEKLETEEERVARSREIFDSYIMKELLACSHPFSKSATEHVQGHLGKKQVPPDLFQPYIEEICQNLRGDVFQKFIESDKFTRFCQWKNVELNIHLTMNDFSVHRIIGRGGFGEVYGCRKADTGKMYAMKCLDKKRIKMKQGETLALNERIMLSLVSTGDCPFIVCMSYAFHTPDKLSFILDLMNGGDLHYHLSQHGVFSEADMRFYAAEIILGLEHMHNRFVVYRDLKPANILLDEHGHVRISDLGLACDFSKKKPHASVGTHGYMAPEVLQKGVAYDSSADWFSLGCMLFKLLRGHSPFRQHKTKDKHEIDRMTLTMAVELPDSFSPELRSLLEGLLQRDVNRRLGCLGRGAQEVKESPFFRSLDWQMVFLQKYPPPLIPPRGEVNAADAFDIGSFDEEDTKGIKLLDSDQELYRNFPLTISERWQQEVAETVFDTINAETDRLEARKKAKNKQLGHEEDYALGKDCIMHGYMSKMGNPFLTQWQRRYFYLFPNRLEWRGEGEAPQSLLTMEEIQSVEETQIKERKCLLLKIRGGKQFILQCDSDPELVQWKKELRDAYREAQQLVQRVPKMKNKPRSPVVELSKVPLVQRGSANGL
Assay: GRK2 binders displacing RNA aptamer, biochemical, validation, human GRK2, bead flow cytometry (AID 488806)
Details: bead-bound GRK2, FAM-aptamer displacement, at 10 µM, stronger effect = higher value
reportedProperty: aptamer binding inhibition (%)
Write the number in % without appending the unit.

Some molecules with recorded aptamer binding inhibition:
[
  {
    "molecule": "O=C1NCCN2CCCC12 (stereo not given)",
    "aptamer binding inhibition (%)": 0
  },
  {
    "molecule": "[N-]=[N+]=NC1C[C@H](n2ccc(=O)[nH]c2=O)O[C@@H]1CO (stereo not given in full)",
    "aptamer binding inhibition (%)": -2
  },
  {
    "molecule": "CCCC(=O)OCC[N+](C)(C)C",
    "aptamer binding inhibition (%)": 4
  },
  {
    "molecule": "C[C@@H]1O[C@@H](O[C@H]2C[C@@H](O)[C@]3(CO)[C@H]4[C@H](O)C[C@]5(C)[C@@H](C6COC(=O)C6)CC[C@]5(O)[C@@H]4CC[C@]3(O)C2)[C@H](O)[C@H](O)[C@H]1O (stereo not given in full)",
    "aptamer binding inhibition (%)": 1
  },
  {
    "molecule": "Cn1c(O)c(C=NCCc2c[nH]c3ccccc23)c(=O)n(C)c1=O",
    "aptamer binding inhibition (%)": 5
  }
]

Quick one: aptamer binding inhibition of C[C@]12CC[C@@H]3c4ccc(O)c(O)c4CC[C@H]3[C@@H]1CC[C@@H]2O ?
-1

Moving on to the next molecule: Nc1ccncc1
1
